# assayed-system: Protein deacetylase HDAC6 (Homo sapiens)
# Sequence (whole entry): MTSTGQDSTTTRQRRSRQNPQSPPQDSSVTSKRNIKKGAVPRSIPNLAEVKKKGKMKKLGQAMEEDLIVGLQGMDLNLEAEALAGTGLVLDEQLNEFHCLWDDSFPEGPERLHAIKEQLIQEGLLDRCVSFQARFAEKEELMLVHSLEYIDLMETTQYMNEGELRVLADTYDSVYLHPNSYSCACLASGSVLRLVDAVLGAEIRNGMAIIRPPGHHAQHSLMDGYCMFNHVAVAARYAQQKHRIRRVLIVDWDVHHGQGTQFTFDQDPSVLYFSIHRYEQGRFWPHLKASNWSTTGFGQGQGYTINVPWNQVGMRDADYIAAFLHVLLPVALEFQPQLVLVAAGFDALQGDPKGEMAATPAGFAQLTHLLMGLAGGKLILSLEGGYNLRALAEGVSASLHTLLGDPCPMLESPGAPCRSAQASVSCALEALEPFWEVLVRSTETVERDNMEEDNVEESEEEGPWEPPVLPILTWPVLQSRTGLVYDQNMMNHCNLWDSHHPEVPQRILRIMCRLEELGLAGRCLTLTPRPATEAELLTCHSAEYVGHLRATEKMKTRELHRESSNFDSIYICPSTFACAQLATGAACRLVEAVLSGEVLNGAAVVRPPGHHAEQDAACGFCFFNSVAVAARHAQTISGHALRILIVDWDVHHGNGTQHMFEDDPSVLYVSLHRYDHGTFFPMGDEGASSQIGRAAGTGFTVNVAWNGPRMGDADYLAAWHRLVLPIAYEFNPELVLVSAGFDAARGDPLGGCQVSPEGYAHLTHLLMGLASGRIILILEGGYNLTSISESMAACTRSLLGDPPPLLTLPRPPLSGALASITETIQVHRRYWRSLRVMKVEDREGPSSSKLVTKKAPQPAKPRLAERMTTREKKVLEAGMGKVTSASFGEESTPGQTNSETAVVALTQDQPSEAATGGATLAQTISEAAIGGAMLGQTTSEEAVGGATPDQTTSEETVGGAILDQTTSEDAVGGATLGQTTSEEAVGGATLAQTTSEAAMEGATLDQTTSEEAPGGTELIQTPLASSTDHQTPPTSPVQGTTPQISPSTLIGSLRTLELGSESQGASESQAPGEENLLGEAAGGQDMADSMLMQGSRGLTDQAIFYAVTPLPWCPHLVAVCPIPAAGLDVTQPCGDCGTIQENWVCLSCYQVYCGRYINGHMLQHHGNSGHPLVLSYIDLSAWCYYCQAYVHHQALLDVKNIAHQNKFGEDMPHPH
# condition: at 10 µM
The whole screen tested about 5,600 compounds, of which about 150 (2.7%) showed an effect of 50% or more. Many of the other results were omitted from the sample, so strong results are more common in it than they were.

compound-structure: C[C@H](C[C@H](N)C(=O)O)C(=O)O
inhibition (%): 2.11
--
compound-structure: CC(C)[C@@H](CS(=O)(=O)C(C)C)N1C(=O)[C@@](C)(CC(=O)O)C[C@H](c2cccc(Cl)c2)[C@H]1c1ccc(Cl)cc1
inhibition (%): -1.54
--
compound-structure: O=C(Nc1ccc(Cl)cc1)Nc1cccc(-c2cccc(N3CCCC3)n2)c1
inhibition (%): -4.23
--
compound-structure: Cc1ccc(O)c(/N=N/c2ccccc2)n1
inhibition (%): 99.5
--
compound-structure: CCCCCCCCCCCCCCCCCCCCCC(=O)Nc1ccn([C@@H]2O[C@H](CO)[C@@H](O)[C@@H]2O)c(=O)n1
inhibition (%): -7.93
--
compound-structure: Cc1ccccc1/N=N/c1ccc(/N=N/c2c(O)ccc3ccccc23)c(C)c1
inhibition (%): 0.88
--
compound-structure: COC(=O)[C@H](CC(C)C)NC(=O)c1ccc(NC[C@@H](N)CS)cc1-c1cccc2ccccc12
inhibition (%): 3.13
--
compound-structure: Fc1ccc2c(CCNCc3cccc(OCC(F)(F)C(F)F)c3)c[nH]c2c1
inhibition (%): 4.2
--
compound-structure: O=C(O)c1cc2ccccc2s1
inhibition (%): -8.12
--
compound-structure: OC(c1ccc(-c2ccc(CN3CCN(Cc4ccncc4)CC3)cc2)c(F)c1)(C(F)(F)F)C(F)(F)F
inhibition (%): -2.34

====

# assayed-system: Protein deacetylase HDAC6 (Homo sapiens) (UniProt Q9UBN7)
# Sequence (whole entry): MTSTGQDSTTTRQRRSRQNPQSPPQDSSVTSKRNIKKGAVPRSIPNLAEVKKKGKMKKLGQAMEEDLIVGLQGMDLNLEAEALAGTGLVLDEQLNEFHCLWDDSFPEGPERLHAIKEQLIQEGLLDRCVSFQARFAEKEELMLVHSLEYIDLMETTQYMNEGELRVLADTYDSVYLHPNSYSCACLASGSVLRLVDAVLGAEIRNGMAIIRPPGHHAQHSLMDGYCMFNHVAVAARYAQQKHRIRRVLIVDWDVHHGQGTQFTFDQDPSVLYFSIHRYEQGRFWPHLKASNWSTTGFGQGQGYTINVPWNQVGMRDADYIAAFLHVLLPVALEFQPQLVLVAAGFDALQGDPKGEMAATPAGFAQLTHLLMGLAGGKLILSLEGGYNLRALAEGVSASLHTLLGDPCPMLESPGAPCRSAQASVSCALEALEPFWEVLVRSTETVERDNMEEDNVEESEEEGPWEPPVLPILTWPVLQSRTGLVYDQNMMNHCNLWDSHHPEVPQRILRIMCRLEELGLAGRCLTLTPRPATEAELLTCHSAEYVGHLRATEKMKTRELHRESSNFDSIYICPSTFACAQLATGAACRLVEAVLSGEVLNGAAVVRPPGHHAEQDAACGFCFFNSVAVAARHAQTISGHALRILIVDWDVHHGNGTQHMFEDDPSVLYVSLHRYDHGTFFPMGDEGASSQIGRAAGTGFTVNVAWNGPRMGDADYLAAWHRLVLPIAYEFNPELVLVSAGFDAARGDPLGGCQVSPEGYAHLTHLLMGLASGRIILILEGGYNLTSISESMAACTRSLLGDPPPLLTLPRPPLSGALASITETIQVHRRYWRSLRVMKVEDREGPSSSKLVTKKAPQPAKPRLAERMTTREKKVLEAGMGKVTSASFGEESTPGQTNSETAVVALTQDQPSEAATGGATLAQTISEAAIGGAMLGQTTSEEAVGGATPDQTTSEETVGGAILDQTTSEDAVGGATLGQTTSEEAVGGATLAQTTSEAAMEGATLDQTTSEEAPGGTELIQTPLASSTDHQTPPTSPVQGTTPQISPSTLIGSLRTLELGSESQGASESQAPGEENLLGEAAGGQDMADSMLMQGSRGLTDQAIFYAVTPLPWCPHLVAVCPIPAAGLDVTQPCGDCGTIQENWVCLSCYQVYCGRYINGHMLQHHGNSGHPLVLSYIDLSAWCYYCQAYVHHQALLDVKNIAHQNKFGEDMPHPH
# condition: at 10 µM
The campaign covered roughly 5,600 compounds. About 150 (2.7%) showed an effect of 50% or more. The sample as a whole holds a higher share of strong results than the screen did.
quantity-kind: inhibition (%)

molecule: COc1ccc(-c2cc(=O)c3c(O)c(OC)c(O)cc3o2)cc1OC
assay-value: 58.5
//
molecule: O=C(O)[C@H]1O[C@H](Oc2cc3oc(-c4ccccc4)cc(=O)c3c(O)c2O)[C@H](O)[C@@H](O)[C@@H]1O
assay-value: -2.69
//
molecule: N[C@@H](CCC(=O)O)C(=O)O
assay-value: -3.62
//
molecule: CCCCCCCCCCCCCCCC(=O)OC[C@H](COP(=O)([O-])OCC[N+](C)(C)C)OC(=O)CCCCCCCCCCCCCCC
assay-value: -0.71
//
molecule: CCCCOC(=O)c1cc2c(cn1)[nH]c1ccccc12
assay-value: 36
//
molecule: O=C1c2ccccc2C(=O)C1c1ccccc1
assay-value: 0.29
//
molecule: O=C(NO)c1ccc(O)c(O)c1
assay-value: 56.3
//
molecule: NCCNS(=O)(=O)c1ccc(Cl)c2ccncc12
assay-value: -2.71
//
molecule: Cc1ccc(S(=O)(=O)Nc2nc3ccccc3nc2Nc2ccc3nsnc3c2)cc1
assay-value: 1.65
//
molecule: Cc1c(-c2ccc(-c3ccccc3F)cc2)nc2ccc(F)cc2c1C(=O)O
assay-value: -2.53
//
molecule: O=C1c2ccccc2C(=O)C1c1ccc(Br)cc1
assay-value: 86.8
//
molecule: O=C1C[C@@H](c2ccccc2)Oc2cc(O)cc(O)c21
assay-value: 4
//
molecule: COc1cc(C(=O)OCCCN2CCCN(CCCOC(=O)c3cc(OC)c(OC)c(OC)c3)CC2)cc(OC)c1OC
assay-value: -3.62
//
molecule: O=c1cc(-c2ccccc2)oc2cc(O)c(O)c(O)c12
assay-value: 75.1
//
molecule: CCc1ccc(/C=C2/SC(=S)NC2=O)cc1
assay-value: 16.7
//
molecule: O=C(c1ccc(CN2CCOCC2)cc1)N1CCN(C2CC2)CC1
assay-value: 4.17
//
molecule: C=CC(=O)O
assay-value: 0.87
//
molecule: C#Cc1cccc(Nc2ncnc3cc(OCCOC)c(OCCOC)cc23)c1
assay-value: 1.06
//
molecule: CC(C)Oc1ccc2c(=O)c(-c3ccccc3)coc2c1
assay-value: -8.43
//
molecule: CCCc1c(OCCCOc2ccc(OCC(=O)O)cc2)ccc(CC=O)c1O
assay-value: -1.53
//
molecule: O=C(c1ccccc1)c1ccc2n1CCC2C(=O)O (centres undefined)
assay-value: 75.8
//
molecule: CC(=O)c1ccc2c(c1)[C@@H]1C=CC[C@@H]1[C@H](c1cc3c(cc1Br)OCO3)N2
assay-value: -3.37
//
molecule: O=C(N/N=C/c1ccc(O)c(O)c1)c1cc2ccccc2cc1O
assay-value: 32.8
//
molecule: O=c1c(-c2ccc(O)cc2)coc2cc(O)ccc12
assay-value: 76
//
molecule: O=C(NCC(=O)N1CCCCC1)Nc1ccc2nnsc2c1
assay-value: 4.96
//
molecule: COc1ccc(C(C)=O)c(O)c1
assay-value: 0.72
//
molecule: O=C1c2cccc(O)c2C(=O)c2c(O)cccc21
assay-value: -4.52
//
molecule: COc1cc(C(=S)N2CCOCC2)cc(OC)c1OC
assay-value: 97.4
//
molecule: Cc1cc(O)c2c(c1)C(=O)c1cccc(O)c1C2=O
assay-value: 6.5
//
molecule: O=C1c2ccccc2-n2c1nc1ccccc1c2=O
assay-value: 68.6
//
molecule: COc1ccc(C2CC(c3ccccc3)=NN2c2ccc(S(N)(=O)=O)cc2)cc1 (centres undefined)
assay-value: -2.13
//
molecule: O=C(c1ccc(/C=C/c2n[nH]c3ccccc23)cc1)N1CCNCC1
assay-value: 98
//
molecule: C[C@H](N)C(=O)O
assay-value: -3.75
//
molecule: CC1=NN(c2ccccc2)C(=O)C1
assay-value: -3.47
//
molecule: COc1ccc(-c2coc3cc(O)ccc3c2=O)cc1
assay-value: 62.6
//
molecule: c1ccc(-c2n[nH]c3c2oc2ccccc23)cc1
assay-value: 70.2
//
molecule: CCOC(=O)c1ccc(N2NC(=O)/C(=C/c3ccc([N+](=O)[O-])o3)C2=O)cc1
assay-value: 3.77
//
molecule: O=C(O)COc1ccc(/C=C2\SC(=O)NC2=O)cc1
assay-value: 95
//
molecule: O=c1oc2cc(O)ccc2s1
assay-value: -3.98
//
molecule: C[C@@H]1CC(=O)c2c(ccc3c2C(=O)c2cccc(O)c2C3=O)C1
assay-value: 77.5
//
molecule: CC(C)C(=O)c1ccc(O)c(O)c1
assay-value: 0.03
//
molecule: COc1cccc(-c2cc(=O)c3ccccc3o2)c1N
assay-value: 90
//
molecule: O=C(O)c1ccccc1
assay-value: 3.92
//
molecule: C#Cc1cccc(Nc2ncnc3cc(OC)c(OCCCCCCC(=O)NO)cc23)c1
assay-value: 94.6
//
molecule: O=C(O)C1CCCN(CCC=C(c2ccccc2)c2ccccc2)C1 (centres undefined)
assay-value: -1.71
//
molecule: COc1ccc(C2C(=O)c3ccccc3C2=O)cc1
assay-value: 97.2
//
molecule: O=c1cc(-c2ccc(O)cc2)oc2cc(O)cc(O)c12
assay-value: 66.2
//
molecule: CN1CCc2c(c3ccccc3n2Cc2ccc(C(=O)NO)cc2)C1
assay-value: 97
//
molecule: O=C(NCc1ccc2c(c1)OCO2)c1c(Cl)cccc1Cl
assay-value: 3.64
